Measure: melting point

Some entries whose results are on file:
COc1ccc(-c2c(C#N)ccnc2SC)cc1 ... 80 to 81 °C
CC(C)C(CO)CS(N)(=O)=O (stereo unspecified) ... 83 to 84 °C
COC(=O)COc1ccc(OC)cc1C=O ... 74 to 75 °C
COc1cc2c(cc1C)C(CCCN1CCN(C)CC1)(c1ccccc1F)C(=O)N2S(=O)(=O)c1ccc(OC(C)C)cc1 (stereo unspecified) ... 70 °C
CC(=O)C1C(=O)N(C(=O)Nc2ccccc2)c2ccccc21 (stereo unspecified) ... 171 to 173 °C

Reported melting point ( CCO[C@@H](Cc1ccc(OCCN2CCC(C)(C)c3cc(C(=NOC)c4ccc(C(=O)O)cc4)ccc32)cc1)C(=O)O ) = 83 to 85 °C

For record CNc1cccc(-c2nc(=O)c3ccccc3s2)n1 the listed melting point is 207 to 208 °C

get_value(item= COc1cc(CC(=O)OC(C)(C)C)ccc1NC(=O)Nc1ccccc1C(F)(F)F , readout=melting point) returns 131 to 133 °C

Entry CC1COc2cccc3[nH]c(=O)n1c23 (stereo unspecified) — recorded melting point = 137 °C

Input COc1ccccc1CC(=N)N1CCC(=O)C(C(c2ccccc2)c2ccccc2)C1 (stereo unspecified) . Output melting point: 57 to 58 °C

# compound CCOC(=O)CC(=O)Cc1ccc(Br)cc1[N+](=O)[O-] ; its melting point = 78 to 80 °C
